Data provenance: PubChem BioAssay (NCATS)

- systemName: Nuclear receptor subfamily 1 group I member 2 (Rattus norvegicus)
- methodSummary: qHTS assay for small molecule activators of the rat pregnane X receptor (rPXR) signaling pathway (AID 651751); note: 0% is about no effect
- runParameters: rPXR reporter cells, luciferase (One-Glo), 24 h
The source made the active and inactive calls. The rule behind the calls is not given here.
assayMetric: max response

Inquiry: Name the reported max response value associated with the molecule CC(C)(C)OCC1CO1 (configuration not stated)
Reply text: 0.0184% (inactive)

Inquiry: If you can, please state the reported max response value of CC1(N)CCC(C(C)(C)N)CC1 (configuration not stated) .
Reply text: 1.15% (inactive)

Inquiry: Quick one: max response of O=Cc1cccc(Br)c1 ?
Reply text: 5.18% (inactive)

Inquiry: GET /values?readout=max response&item= CC(C)N=C=NC(C)C
Reply text: 1.41% (inactive)

Inquiry: Given the molecule CC(=O)Nc1ccc(N)cc1 , what is its reported max response?
Reply text: 9.42% (inactive)
